molecular target: Human AMPK α2ß2γ1 (Homo sapiens, UniProt O43741+P54646); construct: The full length cDNAs of human AMPK ß2 (NM_005399.3) and human AMPK α2 (NM_006252.3); The full length cDNAs of human AMPK ß2 (NM_005399.3); 6xHis (N); made in house; host or cells: Escherichia coli BL21 CodonPlus (DE3)-RIL; experiment: Test Example 2: activator evaluation on phosphorylated human AMPK α2ß2γ1 (mobility-shift assay, FL-Peptide 7); format: biochemical; settings: human AMPK α2ß2γ1 pre-phosphorylated with CaMKK2; 25° C., 2 hours; 1% DMSO
Sequence (P54646 whole entry): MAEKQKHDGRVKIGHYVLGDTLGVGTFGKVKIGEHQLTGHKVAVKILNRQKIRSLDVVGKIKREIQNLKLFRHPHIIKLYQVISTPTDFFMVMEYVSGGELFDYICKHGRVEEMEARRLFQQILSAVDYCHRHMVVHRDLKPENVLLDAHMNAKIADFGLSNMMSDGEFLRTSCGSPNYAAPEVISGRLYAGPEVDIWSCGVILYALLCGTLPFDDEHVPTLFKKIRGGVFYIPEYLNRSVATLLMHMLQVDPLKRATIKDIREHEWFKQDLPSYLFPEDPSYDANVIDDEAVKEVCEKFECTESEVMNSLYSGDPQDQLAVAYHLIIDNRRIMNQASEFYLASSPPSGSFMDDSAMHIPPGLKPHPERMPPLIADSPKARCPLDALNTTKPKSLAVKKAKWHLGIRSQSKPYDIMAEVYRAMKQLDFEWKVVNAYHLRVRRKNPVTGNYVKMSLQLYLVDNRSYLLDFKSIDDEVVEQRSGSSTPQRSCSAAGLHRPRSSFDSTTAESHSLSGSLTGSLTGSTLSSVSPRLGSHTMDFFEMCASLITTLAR
Sequence (O43741 whole entry): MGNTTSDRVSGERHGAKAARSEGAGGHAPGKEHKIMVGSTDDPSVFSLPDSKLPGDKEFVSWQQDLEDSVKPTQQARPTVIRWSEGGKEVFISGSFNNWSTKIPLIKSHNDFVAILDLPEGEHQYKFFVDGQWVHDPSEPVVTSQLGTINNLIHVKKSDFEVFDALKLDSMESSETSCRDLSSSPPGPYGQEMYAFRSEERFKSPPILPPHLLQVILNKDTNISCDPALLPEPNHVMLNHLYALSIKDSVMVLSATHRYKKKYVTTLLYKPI
Sequence (P54619 whole entry partner): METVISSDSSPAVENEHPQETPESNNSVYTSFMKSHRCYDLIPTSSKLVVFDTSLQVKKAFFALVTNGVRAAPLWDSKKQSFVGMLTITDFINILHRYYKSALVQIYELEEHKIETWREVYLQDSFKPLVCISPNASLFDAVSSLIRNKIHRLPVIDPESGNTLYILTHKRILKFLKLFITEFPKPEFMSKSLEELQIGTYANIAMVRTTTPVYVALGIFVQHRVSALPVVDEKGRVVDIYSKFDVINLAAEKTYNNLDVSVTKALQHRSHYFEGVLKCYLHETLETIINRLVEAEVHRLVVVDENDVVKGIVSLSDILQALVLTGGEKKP
attributeMeasured: EC150 (compound concentration showing 150% relative to the control (100%)) (nM)
Hi! Could you send only the number? It should be in nM, unit omitted.

### Prompt Give measured EC150 (compound concentration showing 150% relative to the control (100%)) for CS(C)(=O)=Nc1ccc(-c2ccc(-c3nc4nc(O[C@@H]5CO[C@H](CO)C5(F)F)[nH]c4cc3Cl)cc2)nc1 [Compound (I-2-4)] (Human AMPK α2ß2γ1 (Homo sapiens, UniProt O43741+P54646)).
### Response 9.7

### Prompt Give measured EC150 (compound concentration showing 150% relative to the control (100%)) for CCS(=O)(CC)=Nc1ccc(-c2ccc(-c3nc4nc(O[C@@H]5CO[C@H](CO)C5(F)F)[nH]c4cc3Cl)cc2)cc1 [Compound (I-2-5)] (Human AMPK α2ß2γ1 (Homo sapiens, UniProt O43741+P54646)).
### Response 6.2

### Prompt Give measured EC150 (compound concentration showing 150% relative to the control (100%)) for CN=S(C)(=N)c1ccc(-c2ccc(-c3nc4nc(O[C@@H]5CO[C@H](CO)C5(F)F)[nH]c4cc3Cl)cc2)cc1 (stereo partly drawn) [Compound (I-2-2)] (Human AMPK α2ß2γ1 (Homo sapiens, UniProt O43741+P54646)).
### Response 3.1

* * *

Biological target: Human AMPK α2ß2γ1 (Homo sapiens, UniProt O43741+P54646)
Construct: The full length cDNAs of human AMPK ß2 (NM_005399.3) and human AMPK α2 (NM_006252.3); The full length cDNAs of human AMPK ß2 (NM_005399.3); 6xHis (N); made in house; host or cells: Escherichia coli BL21 CodonPlus (DE3)-RIL
Assay: Test Example 2: activator evaluation on phosphorylated human AMPK α2ß2γ1 (mobility-shift assay, FL-Peptide 7)
Assay type: biochemical
Conditions: human AMPK α2ß2γ1 pre-phosphorylated with CaMKK2; 25° C., 2 hours; 1% DMSO
Procedure: The full length cDNAs of human AMPK ß2 (NM_005399.3) and human AMPK α2 (NM_006252.3) were inserted into the MCS1 and MCS2 of the pETDuet-1 vector to prepare a human AMPK ß2 and human AMPK α2 (6× His tag at the 5′ terminus) expressing plasmid. […] A conversion rate was calculated from the peak heights of the obtained substrate and product. […]
attributeMeasured: EC150 (compound concentration showing 150% relative to the control (100%)) (nM)
Hi! Could you send only the number? It should be in nM, unit omitted.

{"molecule": "CS(C)(=O)=NC1CC=C(c2ccc(-c3nc4nc(O[C@@H]5CO[C@H](CO)C5(F)F)[nH]c4cc3Cl)cc2)CC1 (stereo partly drawn) [Compound (I-2-9)]", "unitOfMeasure": "nM", "endpointResult": 1.3}

Attention now turns to another entry.
### Prompt Give measured EC150 (compound concentration showing 150% relative to the control (100%)) for CS(C)(=O)=Nc1ccc(-c2ccc(-c3nc4nc(O[C@@H]5CO[C@H](CO)C5(F)F)[nH]c4cc3Cl)c(F)c2)cc1 [Compound (I-2-3)] (Human AMPK α2ß2γ1 (Homo sapiens, UniProt O43741+P54646)).
### Response 4.2

* * *

Examples of compounds with documented Emax follow.
molecular target: Human AMPK α2ß2γ1 (Homo sapiens, UniProt O43741+P54646); construct: The full length cDNAs of human AMPK ß2 (NM_005399.3) and human AMPK α2 (NM_006252.3); The full length cDNAs of human AMPK ß2 (NM_005399.3); 6xHis (N); made in house; host or cells: Escherichia coli BL21 CodonPlus (DE3)-RIL; assay: Test Example 2: activator evaluation on phosphorylated human AMPK α2ß2γ1 (mobility-shift assay, FL-Peptide 7); type: biochemical; details: human AMPK α2ß2γ1 pre-phosphorylated with CaMKK2; control without compound = 100%; read-out: Emax (maximum rate of increase in activity within the measurement range)
Record the result as number plus unit.

{"compound": "CS(C)(=O)=Nc1ccc(-c2ccc(-c3nc4nc(OCCO)[nH]c4cc3Cl)cc2)cc1 [Compound (I-1-3)]", "measuredTarget": "Human AMPK α2ß2γ1 (Homo sapiens, UniProt O43741+P54646)", "attributeMeasured": "Emax", "endpointResult": "235%"}

### Prompt Tell me measured Emax for CS(C)(=O)=Nc1ccc(-c2ccc(-c3nc4nc(O[C@@H]5CO[C@H](CO)C5(F)F)[nH]c4cc3Cl)cc2)cc1 [Compound (I-1-7)] please.
### Response 504%

### Prompt Tell me measured Emax for CS(C)(=O)=Nc1ccc(-c2ccc(-c3nc4nc(O[C@@H]5CO[C@H](CO)[C@@H]5F)[nH]c4cc3Cl)cc2)cc1 [Compound (I-1-6)] please.
### Response 514%

### Prompt Tell me measured Emax for CN=S(C)(=N)c1ccc(-c2ccc(-c3nc4nc(O[C@@H]5CO[C@H](CO)C5(F)F)[nH]c4cc3Cl)cc2)cc1 (stereo partly drawn) [Compound (I-2-2)] please.
### Response 604%

### Prompt Tell me measured Emax for CS(C)(=O)=NC1CC=C(c2ccc(-c3nc4nc(O[C@@H]5CO[C@H](CO)C5(F)F)[nH]c4cc3F)cc2)CC1 (stereo partly drawn) [Compound (I-2-10)] please.
### Response 604%

### Prompt Tell me measured Emax for CS(C)(=O)=Nc1ccc(-c2ccc(-c3nc4nc(O[C@@H]5CO[C@H]6[C@@H]5OC[C@H]6O)[nH]c4cc3F)cc2)cc1 [Compound (I-1-2)] please.
### Response 556%

* * *

biological target: Human AMPK α2ß2γ1 (Homo sapiens, UniProt O43741+P54646); construct: The full length cDNAs of human AMPK ß2 (NM_005399.3) and human AMPK α2 (NM_006252.3); The full length cDNAs of human AMPK ß2 (NM_005399.3); 6xHis (N); made in house; host or cells: Escherichia coli BL21 CodonPlus (DE3)-RIL; assay: Test Example 2: activator evaluation on phosphorylated human AMPK α2ß2γ1 (mobility-shift assay, FL-Peptide 7); type: biochemical; details: human AMPK α2ß2γ1 pre-phosphorylated with CaMKK2; 25° C., 2 hours; 1% DMSO
attributeMeasured: EC150 (compound concentration showing 150% relative to the control (100%)) (nM)
Hi! Could you send only the number? It should be in nM, unit omitted.

Some solved entries appear below for comparison.
{"molecule": "CS(C)(=O)=Nc1ccc(-c2ccc(-c3nc4nc(O[C@@H]5CO[C@H](CO)[C@H]5F)[nH]c4cc3Cl)cc2)cc1", "endpointResult": 1.4}
{"molecule": "CS(C)(=O)=Nc1ccc(-c2ccc(-c3nc4nc(O[C@@H]5CO[C@H](CO)C5(F)F)[nH]c4cc3F)c(F)c2)cc1", "endpointResult": 0.75}
{"molecule": "CS(C)(=O)=NC1CC=C(c2ccc(-c3nc4nc(O[C@@H]5CO[C@H](CO)C5(F)F)[nH]c4cc3F)cc2)CC1 (stereo partly shown)", "endpointResult": 2.1}
{"molecule": "COC(=O)NC1CC=C(c2ccc(-c3nc4nc(O[C@@H]5CO[C@H](CO)C5(F)F)[nH]c4cc3Cl)cc2)CC1 (stereo partly shown)", "endpointResult": 9.5}
{"molecule": "CC(=O)NC(C)(C)c1ccc(Oc2nc3nc(-c4ccc(-c5ccc(N=S(C)(C)=O)cc5)cc4)c(Cl)cc3[nH]2)cc1", "endpointResult": 3.8}

### Prompt Tell me measured EC150 (compound concentration showing 150% relative to the control (100%)) for CN=S(C)(=N)c1ccc(-c2ccc(-c3nc4nc(O[C@@H]5CO[C@H](CO)C5(F)F)[nH]c4cc3F)cc2)cc1 (stereo partly shown) please.
### Response 1.2

### Prompt Tell me measured EC150 (compound concentration showing 150% relative to the control (100%)) for O=S1(=Nc2ccc(-c3ccc(-c4nc5nc(O[C@@H]6CO[C@H](CO)C6(F)F)[nH]c5cc4Cl)cc3)cc2)CCOCC1 please.
### Response 3.0

* * *

Examples of molecules with documented EC150 (compound concentration showing 150% relative to the control (100%)) follow.
target: Human AMPK α2ß2γ1 (Homo sapiens, UniProt O43741+P54646); construct: The full length cDNAs of human AMPK ß2 (NM_005399.3) and human AMPK α2 (NM_006252.3); The full length cDNAs of human AMPK ß2 (NM_005399.3); 6xHis (N); made in house; host or cells: Escherichia coli BL21 CodonPlus (DE3)-RIL; assay: Test Example 2: activator evaluation on phosphorylated human AMPK α2ß2γ1 (mobility-shift assay, FL-Peptide 7); type: biochemical; settings: human AMPK α2ß2γ1 pre-phosphorylated with CaMKK2; 25° C., 2 hours; 1% DMSO
Hi! Could you send only the number? It should be in nM, unit omitted.

Some solved entries appear below for comparison.
{"molecule": "CS(C)(=O)=Nc1ccc(-c2ccc(-c3nc4nc(O[C@@H]5CO[C@H](CO)C5(F)F)[nH]c4cc3F)cc2)nc1", "unitOfMeasure": "nM", "endpointResult": 3.1}
{"molecule": "COC(=O)NC1CC=C(c2ccc(-c3nc4nc(O[C@@H]5CO[C@H](CO)[C@H]5F)[nH]c4cc3Cl)cc2)CC1 (stereo partly drawn)", "unitOfMeasure": "nM", "endpointResult": 21}
{"molecule": "CCS(=O)(CC)=Nc1ccc(-c2ccc(-c3nc4nc(O[C@@H]5CO[C@H](CO)C5(F)F)[nH]c4cc3F)cc2)cc1", "unitOfMeasure": "nM", "endpointResult": 0.54}

### Prompt Tell me measured EC150 (compound concentration showing 150% relative to the control (100%)) for CS(C)(=O)=Nc1ccc(-c2ccc(-c3nc4nc(O[C@@H]5CO[C@H](CO)[C@@H]5F)[nH]c4cc3Cl)cc2)cc1 please.
### Response 7.4

### Prompt Tell me measured EC150 (compound concentration showing 150% relative to the control (100%)) for CS(C)(=O)=Nc1ccc(-c2ccc(-c3nc4nc(O[C@@H]5CO[C@H](CO)C5(F)F)[nH]c4cc3F)cc2)cc1 please.
### Response 1.1

### Prompt Tell me measured EC150 (compound concentration showing 150% relative to the control (100%)) for CS(C)(=O)=Nc1ccc(-c2ccc(-c3nc4nc(OCCO)[nH]c4cc3Cl)cc2)cc1 please.
### Response 19

Source listed as patent US10406140B2.
